Here the recorded residual activity is given for each entry.
biological target: MATK (human) (UniProt P42679); experiment: radiometric filter-binding kinase assay, Kinase HotSpot; conditions: compound 0.5 µM; ATP 10 µM
Sequence (P42679 whole entry, looked up): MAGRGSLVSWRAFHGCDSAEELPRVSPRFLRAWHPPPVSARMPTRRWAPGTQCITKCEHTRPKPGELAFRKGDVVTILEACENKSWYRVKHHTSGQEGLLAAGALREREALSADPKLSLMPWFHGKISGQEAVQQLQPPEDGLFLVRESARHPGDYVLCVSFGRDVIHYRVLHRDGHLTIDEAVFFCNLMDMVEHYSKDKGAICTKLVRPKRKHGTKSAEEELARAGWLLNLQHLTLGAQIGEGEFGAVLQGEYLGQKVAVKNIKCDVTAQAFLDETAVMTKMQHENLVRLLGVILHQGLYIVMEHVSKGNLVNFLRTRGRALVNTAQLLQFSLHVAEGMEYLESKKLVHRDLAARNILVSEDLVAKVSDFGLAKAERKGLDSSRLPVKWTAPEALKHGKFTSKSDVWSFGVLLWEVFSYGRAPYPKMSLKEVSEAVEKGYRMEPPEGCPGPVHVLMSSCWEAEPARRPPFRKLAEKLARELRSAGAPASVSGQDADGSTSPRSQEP
Write the number in % without appending the unit.

Examples with their reported residual activity follow.
>  <TEST SMILES>
Cc1cccc(-c2nc(C(C)(C)C)[nH]c2-c2ccc3c(c2)OCO3)n1

>  <UOM>
%

>  <residual activity>
100

$$$$
>  <TEST SMILES>
N#C/C(=C\c1ccc(O)c(O)c1)C(=O)NCc1ccccc1

>  <UOM>
%

>  <residual activity>
86.3

$$$$
>  <TEST SMILES>
CCCCc1c(-c2ccc(OC)cc2)[nH]c2nccnc12

>  <UOM>
%

>  <residual activity>
101

$$$$
>  <TEST SMILES>
Ic1cccc(CSc2nnc(-c3ccncc3)o2)c1

>  <UOM>
%

>  <residual activity>
94.3

$$$$

QUERY: residual activity lookup needed for `Cc1cncc2cccc(S(=O)(=O)N3CCCN(C(=O)CN)C[C@H]3C)c12` , thanks.
RESULT: 94.4

###

molecular target: UniProt O94804; test: radiometric filter-binding kinase assay, Kinase HotSpot; details: compound 0.5 µM; ATP 10 µM
Sequence (O94804 whole entry, looked up): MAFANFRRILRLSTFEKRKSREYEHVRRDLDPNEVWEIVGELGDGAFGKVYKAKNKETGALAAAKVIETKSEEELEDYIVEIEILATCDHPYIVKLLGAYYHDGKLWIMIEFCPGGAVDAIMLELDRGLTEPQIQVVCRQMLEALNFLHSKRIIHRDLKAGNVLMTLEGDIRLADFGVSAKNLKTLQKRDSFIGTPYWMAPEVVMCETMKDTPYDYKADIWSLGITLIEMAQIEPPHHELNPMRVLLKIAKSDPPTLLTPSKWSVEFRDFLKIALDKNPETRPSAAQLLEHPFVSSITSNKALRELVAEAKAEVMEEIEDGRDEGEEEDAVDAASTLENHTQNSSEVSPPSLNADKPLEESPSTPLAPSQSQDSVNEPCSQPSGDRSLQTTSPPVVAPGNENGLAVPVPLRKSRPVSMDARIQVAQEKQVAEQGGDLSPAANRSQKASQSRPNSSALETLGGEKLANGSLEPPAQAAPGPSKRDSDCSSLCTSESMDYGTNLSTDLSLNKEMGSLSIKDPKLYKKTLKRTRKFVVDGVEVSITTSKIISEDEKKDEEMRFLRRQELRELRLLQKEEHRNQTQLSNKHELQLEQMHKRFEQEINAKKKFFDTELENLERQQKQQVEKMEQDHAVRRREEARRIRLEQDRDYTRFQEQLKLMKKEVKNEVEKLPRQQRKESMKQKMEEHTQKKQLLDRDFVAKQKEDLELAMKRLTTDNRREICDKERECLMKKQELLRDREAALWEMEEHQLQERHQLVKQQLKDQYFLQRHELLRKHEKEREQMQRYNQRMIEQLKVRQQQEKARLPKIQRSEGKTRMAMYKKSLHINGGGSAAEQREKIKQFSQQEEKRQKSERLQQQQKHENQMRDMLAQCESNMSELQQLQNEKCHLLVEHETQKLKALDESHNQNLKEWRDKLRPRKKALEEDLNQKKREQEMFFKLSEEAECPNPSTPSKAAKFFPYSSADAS
TEST READOUT: residual activity (%)
Write the number in % without appending the unit.

Examples with their reported residual activity follow.
>  <TEST SMILES>
CC(C)(C)c1cc(C=C(C#N)C#N)cc(Br)c1O

>  <TARGET SYSTEM>
UniProt O94804

>  <UOM>
%

>  <residual activity>
95.4

$$$$
>  <TEST SMILES>
COc1cc2ncnc(Nc3ccc(OCc4ccccc4)cc3)c2cc1OC

>  <TARGET SYSTEM>
UniProt O94804

>  <UOM>
%

>  <residual activity>
68.2

$$$$
>  <TEST SMILES>
COc1ccc(Cl)cc1NC(=O)Nc1cc(C)nc2ccccc12

>  <TARGET SYSTEM>
UniProt O94804

>  <UOM>
%

>  <residual activity>
90.9

$$$$
>  <TEST SMILES>
CO[C@@H]1[C@H](N(C)C(=O)c2ccccc2)C[C@H]2O[C@]1(C)n1c3ccccc3c3c4c(c5c6ccccc6n2c5c31)C(=O)NC4

>  <TARGET SYSTEM>
UniProt O94804

>  <UOM>
%

>  <residual activity>
19.3

$$$$
>  <TEST SMILES>
O=C1Nc2ccc(Br)cc2/C1=C\c1cc2c([nH]1)CCCC2

>  <TARGET SYSTEM>
UniProt O94804

>  <UOM>
%

>  <residual activity>
65.5

$$$$

QUERY: residual activity lookup needed for `Cc1nc(-c2ccccc2)c(-c2ccncc2)o1` , thanks.
RESULT: 96.9

QUERY: residual activity lookup needed for `N#C/C(=C\c1ccc(O)c(O)c1)C(=O)NCc1ccccc1` , thanks.
RESULT: 89.6

###

Here the recorded residual activity is given for each entry.
target: ACVR1B (human); experiment: radiometric filter-binding kinase assay, Kinase HotSpot; conditions: compound 0.5 µM; ATP 10 µM
Write the number in % without appending the unit.

>  <TEST SMILES>
CC(C)(C)c1cc(C=C(C#N)C#N)cc(Br)c1O

>  <TARGET SYSTEM>
ACVR1B (human)

>  <UOM>
%

>  <residual activity>
108

$$$$
>  <TEST SMILES>
O=C1NC(=O)c2c1c1c3ccccc3[nH]c1n1cncc21

>  <TARGET SYSTEM>
ACVR1B (human)

>  <UOM>
%

>  <residual activity>
103

$$$$
>  <TEST SMILES>
C[C@@H]1CCN(C(=O)CC#N)C[C@@H]1N(C)c1ncnc2[nH]ccc12

>  <TARGET SYSTEM>
ACVR1B (human)

>  <UOM>
%

>  <residual activity>
99.8

$$$$
>  <TEST SMILES>
Cc1nc(-c2ccccc2)c(-c2ccncc2)o1

>  <TARGET SYSTEM>
ACVR1B (human)

>  <UOM>
%

>  <residual activity>
99.3

$$$$
>  <TEST SMILES>
Fc1ccc(-c2nc3n(c2-c2ccncc2)CCS3)cc1

>  <TARGET SYSTEM>
ACVR1B (human)

>  <UOM>
%

>  <residual activity>
115

$$$$

QUERY: residual activity lookup needed for `Cn1c2ccccc2c2c3c(c4c5ccccc5n(CCC#N)c4c21)CNC3=O` , thanks.
RESULT: 115

QUERY: residual activity lookup needed for `CCCCc1c(-c2ccc(OC)cc2)[nH]c2nccnc12` , thanks.
RESULT: 112

QUERY: residual activity lookup needed for `NC(=O)c1cccc(-c2cc(Nc3ccc(OC(F)(F)F)cc3)ncn2)c1` , thanks.
RESULT: 103

QUERY: residual activity lookup needed for `COc1cc(Nc2c(C#N)cnc3cc(OCCCN4CCN(C)CC4)c(OC)cc23)c(Cl)cc1Cl` , thanks.
RESULT: 105

QUERY: residual activity lookup needed for `COc1ccc(S(=O)(=O)N(CCO)c2ccccc2CN(C)C/C=C/c2ccc(Cl)cc2)cc1` , thanks.
RESULT: 93.2

QUERY: residual activity lookup needed for `CO[C@@H]1[C@H](N(C)C(=O)c2ccccc2)C[C@H]2O[C@]1(C)n1c3ccccc3c3c4c(c5c6ccccc6n2c5c31)C(=O)NC4` , thanks.
RESULT: 102

QUERY: residual activity lookup needed for `COc1ccc2c(c1)c(C1=C(c3c[nH]c4ccccc34)C(=O)NC1=O)cn2CCCN(C)C` , thanks.
RESULT: 111

###

biological target: MATK (human); assay: radiometric filter-binding kinase assay, Kinase HotSpot; settings: compound 0.5 µM; ATP 10 µM
TEST READOUT: residual activity

Examples with their reported residual activity follow.
>  <TEST SMILES>
COc1ccc2c(c1)/C(=C/c1cnc[nH]1)C(O)=N2

>  <residual activity>
92.3%

$$$$
>  <TEST SMILES>
N#Cc1c[nH]c2c[nH]/c(=N\Cc3cccnc3)cc2/c1=N\c1ccc(F)c(Cl)c1

>  <residual activity>
95.9%

$$$$
>  <TEST SMILES>
Cc1nc(-c2ccccc2)c(-c2ccncc2)o1

>  <residual activity>
90.3%

$$$$
>  <TEST SMILES>
Cn1c2ccccc2c2c3c(c4c5ccccc5n(CCC#N)c4c21)CNC3=O

>  <residual activity>
100%

$$$$
>  <TEST SMILES>
O=C1NC(=O)c2c1c1c3ccccc3[nH]c1n1cncc21

>  <residual activity>
99.8%

$$$$
>  <TEST SMILES>
CN(C)c1ccc(/C=C2\C(=O)Nc3ccccc32)cc1

>  <residual activity>
95.3%

$$$$
>  <TEST SMILES>
CS(=O)(=O)CCNCc1ccc(-c2ccc3ncnc(Nc4ccc(OCc5cccc(F)c5)c(Cl)c4)c3c2)o1

>  <residual activity>
75.9%

$$$$

Could you now consider this next molecule?
QUERY: Provide the documented residual activity with MATK (human) as the system for `CO[C@@H]1[C@H](N(C)C(=O)c2ccccc2)C[C@H]2O[C@]1(C)n1c3ccccc3c3c4c(c5c6ccccc6n2c5c31)C(=O)NC4`
RESULT: 113%

###

target: MAP3K2 (human) (UniProt Q9Y2U5); assay: radiometric filter-binding kinase assay, Kinase HotSpot; conditions: compound 0.5 µM; ATP 10 µM
Sequence (Q9Y2U5 whole entry, looked up): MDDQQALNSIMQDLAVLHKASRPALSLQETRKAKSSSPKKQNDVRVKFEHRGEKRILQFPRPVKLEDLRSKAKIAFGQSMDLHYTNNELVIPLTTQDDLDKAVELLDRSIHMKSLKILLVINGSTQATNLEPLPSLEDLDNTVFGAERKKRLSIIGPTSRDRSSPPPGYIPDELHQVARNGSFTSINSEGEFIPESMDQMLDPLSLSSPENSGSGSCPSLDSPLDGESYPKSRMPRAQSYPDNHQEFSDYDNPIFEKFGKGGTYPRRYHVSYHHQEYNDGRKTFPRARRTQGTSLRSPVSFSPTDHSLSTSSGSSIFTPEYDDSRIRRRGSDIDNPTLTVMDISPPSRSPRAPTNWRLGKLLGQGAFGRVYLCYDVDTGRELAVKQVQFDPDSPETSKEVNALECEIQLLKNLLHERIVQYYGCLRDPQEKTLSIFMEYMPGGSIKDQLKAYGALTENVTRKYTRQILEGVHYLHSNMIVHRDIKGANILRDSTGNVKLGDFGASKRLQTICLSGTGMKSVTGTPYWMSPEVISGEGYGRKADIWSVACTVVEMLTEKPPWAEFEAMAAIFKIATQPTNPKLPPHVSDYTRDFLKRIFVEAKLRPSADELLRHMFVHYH
TEST READOUT: residual activity (%)
Write the number in % without appending the unit.

Examples with their reported residual activity follow.
>  <TEST SMILES>
O=C(c1cc2cc(O)ccc2[nH]1)c1cc2cc(O)ccc2[nH]1

>  <TEST READOUT>
residual activity

>  <UOM>
%

>  <REPORTED VALUE>
102

$$$$
>  <TEST SMILES>
COc1ccc2c(c1)c(C1=C(c3c[nH]c4ccccc34)C(=O)NC1=O)cn2CCCN(C)C

>  <TEST READOUT>
residual activity

>  <UOM>
%

>  <REPORTED VALUE>
80.6

$$$$

QUERY: residual activity lookup needed for `Fc1ccc(-c2nc3n(c2-c2ccncc2)CCS3)cc1` , thanks.
RESULT: 99.8

QUERY: residual activity lookup needed for `N#C/C(=C\c1ccc(O)c(O)c1)C(=O)NCc1ccccc1` , thanks.
RESULT: 99.8

QUERY: residual activity lookup needed for `COc1ccc(S(=O)(=O)N(CCO)c2ccccc2CN(C)C/C=C/c2ccc(Cl)cc2)cc1` , thanks.
RESULT: 95.3

QUERY: residual activity lookup needed for `COc1ccc(C(=O)Nc2sc3c(c2C(N)=O)CCCC3)cc1OC` , thanks.
RESULT: 105

###

molecular target: PAK2 (human) (UniProt Q13177); assay: radiometric filter-binding kinase assay, Kinase HotSpot; conditions: compound 0.5 µM; ATP 10 µM
Sequence (Q13177 whole entry, looked up): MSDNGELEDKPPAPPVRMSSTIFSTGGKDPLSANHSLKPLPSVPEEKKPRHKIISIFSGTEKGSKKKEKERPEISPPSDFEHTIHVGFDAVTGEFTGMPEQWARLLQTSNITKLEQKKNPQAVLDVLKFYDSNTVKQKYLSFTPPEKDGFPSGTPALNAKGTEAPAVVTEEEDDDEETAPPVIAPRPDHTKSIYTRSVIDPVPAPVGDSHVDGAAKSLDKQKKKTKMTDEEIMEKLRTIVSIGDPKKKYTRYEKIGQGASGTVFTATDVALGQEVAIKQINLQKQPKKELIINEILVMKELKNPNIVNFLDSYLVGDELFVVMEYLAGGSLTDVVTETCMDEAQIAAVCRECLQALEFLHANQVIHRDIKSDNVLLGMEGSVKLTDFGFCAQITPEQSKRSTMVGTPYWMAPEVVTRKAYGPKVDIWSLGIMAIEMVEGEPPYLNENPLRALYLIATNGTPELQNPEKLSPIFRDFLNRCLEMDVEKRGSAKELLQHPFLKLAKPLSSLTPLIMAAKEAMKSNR
TEST READOUT: residual activity (%)
Write the number in % without appending the unit.

>  <TEST SMILES>
CN(C)S(=O)(=O)c1ccc2c(c1)/C(=C/c1cc3c([nH]1)CCCC3)C(=O)N2

>  <residual activity / %>
92.5

$$$$
>  <TEST SMILES>
Cn1c2ccccc2c2c3c(c4c5ccccc5n(CCC#N)c4c21)CNC3=O

>  <residual activity / %>
91.7

$$$$
>  <TEST SMILES>
CO[C@@H]1[C@H](N(C)C(=O)c2ccccc2)C[C@H]2O[C@]1(C)n1c3ccccc3c3c4c(c5c6ccccc6n2c5c31)C(=O)NC4

>  <residual activity / %>
66.6

$$$$
>  <TEST SMILES>
Cc1cncc2cccc(S(=O)(=O)N3CCCN(C(=O)CN)C[C@H]3C)c12

>  <residual activity / %>
99.7

$$$$
>  <TEST SMILES>
COc1ccc(Cl)cc1NC(=O)Nc1cc(C)nc2ccccc12

>  <residual activity / %>
97.2

$$$$

Could you now consider this next compound?
QUERY: residual activity lookup needed for `CC(C)(C)c1cc(C=C(C#N)C#N)cc(Br)c1O` , thanks.
RESULT: 96.5
